- Target system: human TLR7 (Homo sapiens (Human))
- Assay protocol: HEK293-Blue-hTLR-7 cells assay (SEAP reporter)
- Assay context: 20 hours incubation
Measured parameter: EC50 (µM)

Some compounds with recorded EC50:
| Compound | Result value |
| --- | --- |
| CC[C@H](O)[C@H]1O[C@@H](n2c(=O)sc3c(=O)[nH]c(N)nc32)[C@H](CC(=O)N2CCOCC2)S1 [Example 8-P1] | 2.5 |
| COC(=O)CC1SC(CO)OC1n1c(=O)sc2c(=O)[nH]c(N)nc21 (centres unmarked) [Example 1-P1] | 317 |
| CC[C@H](O)[C@H]1O[C@@H](n2c(=O)sc3c(=O)[nH]c(N)nc32)[C@H](CC(=O)OC)S1 [Example 4-P1] | 13 |

A. CC[C@H](O)[C@H]1O[C@@H](n2c(=O)sc3c(=O)[nH]c(N)nc32)[C@H](CC(=O)N(C)C)S1 [Example 7-P1]
B. CN(C)C(=O)CC1SC(CO)OC1n1c(=O)sc2c(=O)[nH]c(N)nc21 (centres unmarked) [Example 3-P1]
C. COC(=O)CC1SC([C@@H](O)C2CC2)OC1n1c(=O)sc2c(=O)[nH]c(N)nc21 (single isomer, unassigned) [Example 13-P3]
Req: Hey, can you sort those compounds up there by EC50, smallest first? Please list each label once, in the requested order.
Resp: C, A, B

* * *

- Target system: human TLR7 (Homo sapiens (Human), UniProt Q9NYK1)
- Sequence (Q9NYK1 27-1049): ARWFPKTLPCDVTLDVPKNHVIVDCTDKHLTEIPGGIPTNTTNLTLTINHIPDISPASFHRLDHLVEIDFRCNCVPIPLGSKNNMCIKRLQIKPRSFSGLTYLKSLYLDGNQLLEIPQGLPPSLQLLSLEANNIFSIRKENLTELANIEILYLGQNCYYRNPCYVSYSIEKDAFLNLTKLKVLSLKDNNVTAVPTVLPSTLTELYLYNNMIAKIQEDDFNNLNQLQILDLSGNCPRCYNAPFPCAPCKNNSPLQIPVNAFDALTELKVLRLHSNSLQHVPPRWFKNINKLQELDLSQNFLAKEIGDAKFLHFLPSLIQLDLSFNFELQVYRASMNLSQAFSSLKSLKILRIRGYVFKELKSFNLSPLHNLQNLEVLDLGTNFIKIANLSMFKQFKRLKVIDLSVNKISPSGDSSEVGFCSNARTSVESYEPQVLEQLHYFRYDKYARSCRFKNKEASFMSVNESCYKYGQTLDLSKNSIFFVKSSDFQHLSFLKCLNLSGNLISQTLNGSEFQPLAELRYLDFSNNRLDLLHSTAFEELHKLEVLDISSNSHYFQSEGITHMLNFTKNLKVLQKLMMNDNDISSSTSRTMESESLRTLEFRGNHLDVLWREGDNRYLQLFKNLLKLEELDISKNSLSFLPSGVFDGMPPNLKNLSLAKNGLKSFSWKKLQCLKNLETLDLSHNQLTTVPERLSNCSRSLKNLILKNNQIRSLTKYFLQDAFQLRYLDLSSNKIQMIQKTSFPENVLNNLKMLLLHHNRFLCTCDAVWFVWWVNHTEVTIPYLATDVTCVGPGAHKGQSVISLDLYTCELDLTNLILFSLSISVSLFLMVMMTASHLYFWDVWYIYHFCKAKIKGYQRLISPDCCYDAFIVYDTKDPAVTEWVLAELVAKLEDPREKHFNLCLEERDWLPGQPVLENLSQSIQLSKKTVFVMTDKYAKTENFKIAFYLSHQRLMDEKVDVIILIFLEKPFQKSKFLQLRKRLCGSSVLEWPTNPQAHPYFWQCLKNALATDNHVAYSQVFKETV
- Assay protocol: HEK293-Blue-hTLR-7 cells assay (SEAP reporter)
- Assay context: 20 hours incubation
Measured parameter: EC50 (µM)

| Compound | Target system | Result value |
| --- | --- | --- |
| CC[C@H](O)[C@H]1O[C@@H](n2c(=O)sc3c(=O)[nH]c(N)nc32)[C@H](CC(=O)O)S1 [Example 5-P1] | human TLR7 (Homo sapiens (Human), UniProt Q9NYK1) | 24 |
| COC(=O)CC1SC([C@H](C)O)OC1n1c(=O)sc2c(=O)[nH]c(N)nc21 (single isomer, unassigned) | human TLR7 (Homo sapiens (Human), UniProt Q9NYK1) | 22 |
| Nc1nc2c(sc(=O)n2[C@@H]2O[C@H](CO)S[C@H]2CC(=O)O)c(=O)[nH]1 (relative stereo) [Example 2-P1] | human TLR7 (Homo sapiens (Human), UniProt Q9NYK1) | 144 |

A. CC[C@H](O)[C@H]1O[C@@H](n2c(=O)sc3c(=O)[nH]c(N)nc32)[C@H](CC(=O)NC)S1 [Example 6-P1]
B. C=CC[C@H](O)C1OC(n2c(=O)sc3c(=O)[nH]c(N)nc32)C(CC(=O)O)S1 (single isomer, unassigned)
Req: Which numeric EC50 is bigger, that of A or that of B ? # answer = label of selected item
Resp: B

I. CCCC[C@H](O)C1OC(n2c(=O)sc3c(=O)[nH]c(N)nc32)C(CC(=O)O)S1 (single isomer, unassigned)
II. Nc1nc2c(sc(=O)n2C2OC([C@@H](O)C3CC3)SC2CC(=O)O)c(=O)[nH]1 (single isomer, unassigned)
Req: Which numeric EC50 is bigger, that of I or that of II ? # answer = label of selected item
Resp: I
(I: 321 µM, II: 10 µM)
